# ASSAYED TARGET: estrogen receptors (rat uterine cytosol) (Rattus norvegicus, UniProt P06211)
# Sequence (P06211 whole entry): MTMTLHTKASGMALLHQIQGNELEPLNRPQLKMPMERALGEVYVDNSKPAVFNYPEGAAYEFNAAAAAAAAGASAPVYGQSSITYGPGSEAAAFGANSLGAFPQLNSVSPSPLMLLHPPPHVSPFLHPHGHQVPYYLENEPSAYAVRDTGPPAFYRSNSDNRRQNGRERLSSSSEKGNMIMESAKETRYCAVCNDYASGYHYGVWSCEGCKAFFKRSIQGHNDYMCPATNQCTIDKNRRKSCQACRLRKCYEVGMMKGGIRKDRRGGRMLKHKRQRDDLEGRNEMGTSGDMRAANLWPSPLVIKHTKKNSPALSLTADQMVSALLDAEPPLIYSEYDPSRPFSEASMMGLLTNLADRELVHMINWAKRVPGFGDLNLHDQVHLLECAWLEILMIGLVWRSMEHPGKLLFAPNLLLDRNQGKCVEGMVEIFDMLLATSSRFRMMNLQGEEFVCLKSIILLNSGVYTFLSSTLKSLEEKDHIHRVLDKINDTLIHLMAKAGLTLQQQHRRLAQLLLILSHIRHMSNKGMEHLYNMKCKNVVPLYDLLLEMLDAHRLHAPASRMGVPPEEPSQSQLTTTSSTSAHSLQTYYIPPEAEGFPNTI
# ASSAY NAME: Kinetic experiments and Scatchard analyses in rat uterine cytosol
READOUT KIND: Kd
// return the numeric value with its unit appended

Consider the compound C[C@]12CC[C@@H]3c4ccc(O)cc4CC[C@H]3[C@@H]1C[C@@H]([125I])[C@@H]2O [^125 I-E2] and give its measured Kd.
0.27 nM
